- tested_on: ASK1 kinase (Homo sapiens (Human), UniProt Q99683)
- Sequence (Q99683 whole entry): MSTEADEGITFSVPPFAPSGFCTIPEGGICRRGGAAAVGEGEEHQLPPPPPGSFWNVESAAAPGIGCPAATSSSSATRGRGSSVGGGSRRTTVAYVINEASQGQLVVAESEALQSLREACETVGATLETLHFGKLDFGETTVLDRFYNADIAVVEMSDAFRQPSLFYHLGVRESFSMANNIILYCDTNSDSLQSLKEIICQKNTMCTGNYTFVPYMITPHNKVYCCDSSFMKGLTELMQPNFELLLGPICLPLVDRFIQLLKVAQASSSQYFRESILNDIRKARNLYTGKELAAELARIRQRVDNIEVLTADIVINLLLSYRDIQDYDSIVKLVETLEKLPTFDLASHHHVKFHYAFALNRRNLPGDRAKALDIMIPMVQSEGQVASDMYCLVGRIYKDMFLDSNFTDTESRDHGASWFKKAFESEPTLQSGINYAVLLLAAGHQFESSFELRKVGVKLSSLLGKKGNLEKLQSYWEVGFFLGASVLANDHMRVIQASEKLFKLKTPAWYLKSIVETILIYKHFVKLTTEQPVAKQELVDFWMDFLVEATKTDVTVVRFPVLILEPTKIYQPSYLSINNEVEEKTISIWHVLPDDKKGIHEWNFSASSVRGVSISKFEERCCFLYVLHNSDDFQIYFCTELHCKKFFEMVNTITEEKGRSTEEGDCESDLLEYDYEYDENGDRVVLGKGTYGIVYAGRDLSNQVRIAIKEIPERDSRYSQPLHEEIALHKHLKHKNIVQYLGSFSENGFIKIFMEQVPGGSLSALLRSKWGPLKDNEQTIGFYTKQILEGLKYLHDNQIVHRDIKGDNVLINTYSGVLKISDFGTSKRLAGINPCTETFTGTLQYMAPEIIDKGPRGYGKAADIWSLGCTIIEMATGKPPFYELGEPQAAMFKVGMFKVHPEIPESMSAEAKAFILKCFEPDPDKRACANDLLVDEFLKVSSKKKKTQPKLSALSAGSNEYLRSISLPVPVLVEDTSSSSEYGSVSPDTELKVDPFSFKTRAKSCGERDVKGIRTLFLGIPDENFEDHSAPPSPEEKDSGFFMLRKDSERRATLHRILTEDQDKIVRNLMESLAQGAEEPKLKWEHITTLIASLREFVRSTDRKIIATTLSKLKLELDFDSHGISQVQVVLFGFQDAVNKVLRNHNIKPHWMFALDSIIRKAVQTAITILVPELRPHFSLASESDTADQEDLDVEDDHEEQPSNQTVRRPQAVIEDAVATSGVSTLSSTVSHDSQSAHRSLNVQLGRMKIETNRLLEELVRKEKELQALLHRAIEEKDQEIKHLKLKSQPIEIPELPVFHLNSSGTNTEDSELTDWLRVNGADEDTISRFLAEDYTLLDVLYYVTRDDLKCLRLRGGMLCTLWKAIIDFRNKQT
pIC50: −log10 of the molar value.
endpoint_name: pIC50

>>> endpoint_result("Cc1cc(F)c(C(=O)Nc2cccc3c2OC[C@H](CO)n2cnnc2-3)cc1-n1cnc(C2CC2)c1 [Example 16]")
8.28
>>> endpoint_result("Cc1cc(F)c(C(=O)Nc2cccc3c2OC[C@H](C)n2nnnc2-3)cc1-n1cnc(C2CC2)c1 [Example 3]")
8.24
>>> endpoint_result("Cc1cc(F)c(C(=O)Nc2cccc3c2OC[C@@H](CF)n2cnnc2-3)cc1-n1cnc(C2CC2)c1 [Example 28]")
8.35
>>> endpoint_result("Cc1cc(F)c(C(=O)Nc2cccc3c2OC2(CC2)Cn2cnnc2-3)cc1-n1cnc(C2CC2)c1 [Example 45]")
8.28
>>> endpoint_result("CC1(C)COc2c(NC(=O)c3cc(-n4cnc(C5CC5)c4)c(N4CCOCC4)cn3)cccc2-c2nncn21 [Example 36]")
8.25
